Tested on: water-soluble protein/glycoprotein test matrix
Protocol text: Water soluble assay (Alpha): optical response (OD400) of the macromolecule active agent, irritation score
Condition description: TP/FN/TN based on comparison with the in vivo test results
Readout type: Water soluble assay (Alpha), parenthetical call versus in vivo

Some molecules with known Water soluble assay (Alpha), parenthetical call versus in vivo results, for comparison:
- Molecule: "CCCCC(CC)COC(=O)c1ccc(N(C)C)cc1 (stereo not shown) [2-Ethylhexyl 4-(dimethylamino)benzoate]"
  Reported value: "(TN)"
- Molecule: "CC(C)O"
  Reported value: "(TP)"
- Molecule: "O=C=Nc1ccc(Cl)c(Cl)c1 [3,4-Dichlorophenyl isocyanate]"
  Reported value: "(TP)"
- Molecule: "OCc1ccccc1"
  Reported value: "(TP)"
- Molecule: "BrCCCCCCBr"
  Reported value: "(TN)"

Q. Find the measured Water soluble assay (Alpha), parenthetical call versus in vivo of O=C(Cl)C(Cl)(Cl)Cl [Trichloroacetyl chloride] and report it.
A. (TP)

Q. Find the measured Water soluble assay (Alpha), parenthetical call versus in vivo of CCCCCCCCCCCC and report it.
A. (TN)
